Cited source for all entries: paper PMC11997881

Biological target: JNK1 (MAPK8) (Homo sapiens, UniProt P45983)
Sequence (P45983 whole entry): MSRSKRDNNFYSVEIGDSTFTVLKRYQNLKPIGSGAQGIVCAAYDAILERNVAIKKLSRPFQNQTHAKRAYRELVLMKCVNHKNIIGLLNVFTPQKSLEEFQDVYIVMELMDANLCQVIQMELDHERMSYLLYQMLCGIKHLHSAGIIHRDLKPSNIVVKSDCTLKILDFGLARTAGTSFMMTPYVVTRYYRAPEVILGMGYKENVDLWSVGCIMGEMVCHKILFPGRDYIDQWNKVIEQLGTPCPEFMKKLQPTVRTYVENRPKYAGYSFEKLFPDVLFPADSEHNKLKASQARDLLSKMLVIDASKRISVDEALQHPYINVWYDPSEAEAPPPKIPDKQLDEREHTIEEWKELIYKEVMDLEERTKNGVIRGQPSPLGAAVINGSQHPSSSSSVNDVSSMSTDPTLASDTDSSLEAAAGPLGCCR
Experiment: scanMAX binding POC, JNK1
Settings: 1 μM
Would you kindly list JNK1 (MAPK8) POC for each of these compounds?

Consider the worked cases shown below.
C=CC(=O)Nc1cccc(Oc2nc(Nc3ccc(N4CCN(C)CC4)cc3)nc3ccoc23)c1 ... 32% of control
CC#CC(=O)N1CC[C@@H](n2c(=O)n(-c3ccc(Oc4ccccc4)cc3)c3c(N)ncnc32)C1 ... 99% of control
CC#CC(=O)N1CCC[C@H]1c1nc(-c2ccc(C(=O)Nc3ccccn3)cc2)c2c(N)nccn12 ... 93% of control
C=CC(=O)N1CCC(c2ccc(C(N)=O)c(-c3ccc(Oc4ccccc4)cc3)n2)CC1 ... 100% of control
C=CC(=O)N1CCC[C@@H](n2c(=O)n(-c3ccc(Oc4ccccc4)cc3)c3c(N)nccc32)C1 ... 96% of control
C=CC(=O)N(C)CCOc1c(N)ncnc1-c1cc(F)cc(NC(=O)c2ccc(C3CC3)cc2F)c1C ... 93% of control

Respectfully, I request JNK1 (MAPK8) POC for each entry included below.
1. O=C(c1ccc(Oc2ccccc2)cc1Cl)c1c[nH]c2ncnc(N[C@@H]3CC[C@@H](CO)OC3)c12
2. C=CC(=O)N1CCC[C@@H](n2nc(-c3ccc(Oc4ccccc4)cc3)c3c(N)ncnc32)C1
3. C=CC(=O)N1CCC(CNc2ncnc(N)c2-c2ccc(Oc3ccccc3)cc2)CC1

Output line:
1: 39% of control; 2: 78% of control; 3: 95% of control

Respectfully, I request JNK1 (MAPK8) POC for each entry included below.
1. C=CC(=O)Nc1cccc(Nc2nc(Nc3ccc(OCCOC)cc3)ncc2F)c1
2. COc1ccc(F)cc1C(=O)NCc1ccc(-c2nn([C@@H](C)C(F)(F)F)c(N)c2C(N)=O)cc1

Output line:
1. 4.8% of control
2. 96% of control

###

Molecular target: BLK (Homo sapiens)
Sequence (P51451 whole entry): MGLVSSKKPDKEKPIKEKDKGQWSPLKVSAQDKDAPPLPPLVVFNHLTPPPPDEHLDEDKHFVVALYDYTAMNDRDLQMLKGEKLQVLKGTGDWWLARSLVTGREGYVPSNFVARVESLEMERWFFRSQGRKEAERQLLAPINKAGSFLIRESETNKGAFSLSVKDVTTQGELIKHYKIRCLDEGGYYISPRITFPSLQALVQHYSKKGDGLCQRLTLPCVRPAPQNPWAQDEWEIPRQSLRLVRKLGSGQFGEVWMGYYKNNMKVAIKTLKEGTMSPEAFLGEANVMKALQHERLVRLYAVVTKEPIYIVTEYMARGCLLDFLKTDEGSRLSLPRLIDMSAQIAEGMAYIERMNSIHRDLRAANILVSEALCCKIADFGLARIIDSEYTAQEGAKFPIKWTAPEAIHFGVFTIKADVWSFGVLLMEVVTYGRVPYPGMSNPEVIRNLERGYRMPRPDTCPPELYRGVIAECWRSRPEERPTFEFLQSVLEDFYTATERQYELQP
Assay: scanMAX binding POC, BLK
Conditions: 1 μM
property_measured: BLK binding POC

Consider the worked cases shown below.
COc1ccc(F)cc1C(=O)NCc1ccc(-c2nn([C@@H](C)C(F)(F)F)c(N)c2C(N)=O)cc1 ... 69% of control
CC#CC(=O)N1CC[C@@H](n2c(=O)n(-c3ccc(Oc4ccccc4)cc3)c3c(N)ncnc32)C1 ... 14% of control
C=CC(=O)Nc1cccc(Nc2nc(Nc3ccc(OCCOC)cc3)ncc2F)c1 ... 22% of control
C=CC(=O)N(C)CCOc1c(N)ncnc1-c1cc(F)cc(NC(=O)c2ccc(C3CC3)cc2F)c1C ... 100% of control
C=CC(=O)N1CCC[C@@H](c2ccc(C(N)=O)c3[nH]ccc23)C1 ... 15% of control

Respectfully, I request BLK binding POC for each entry included below.
1. C=CC(=O)N1CCC[C@@H](n2c(=O)n(-c3ccc(Oc4ccccc4)cc3)c3c(N)nccc32)C1
2. CC#CC(=O)N1CCC[C@H]1c1nc(-c2ccc(C(=O)Nc3ccccn3)cc2)c2c(N)nccn12

Output line:
1. 0.05% of control
2. 57% of control

###

Target: JNK3 (MAPK10) (Homo sapiens, UniProt P53779)
Sequence (P53779 whole entry): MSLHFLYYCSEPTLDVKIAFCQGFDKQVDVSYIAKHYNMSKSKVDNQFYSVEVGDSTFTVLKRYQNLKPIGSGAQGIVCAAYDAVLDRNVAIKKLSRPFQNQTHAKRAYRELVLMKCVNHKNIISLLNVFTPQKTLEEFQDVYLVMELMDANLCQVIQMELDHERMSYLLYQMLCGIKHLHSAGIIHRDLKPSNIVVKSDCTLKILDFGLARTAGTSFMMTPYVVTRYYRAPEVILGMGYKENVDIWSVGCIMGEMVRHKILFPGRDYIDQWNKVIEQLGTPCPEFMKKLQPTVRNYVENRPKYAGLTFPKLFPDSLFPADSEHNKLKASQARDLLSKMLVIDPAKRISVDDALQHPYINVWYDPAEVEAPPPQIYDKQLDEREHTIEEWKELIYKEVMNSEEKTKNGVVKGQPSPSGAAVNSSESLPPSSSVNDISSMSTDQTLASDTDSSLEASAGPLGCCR
Assay: scanMAX binding POC, JNK3
Conditions: 1 μM
property_measured: JNK3 (MAPK10) POC

CC#CC(=O)N1CC[C@@H](n2c(=O)n(-c3ccc(Oc4ccccc4)cc3)c3c(N)ncnc32)C1 [Tirabrutinib] ... 96% of control
O=C(c1ccc(Oc2ccccc2)cc1Cl)c1c[nH]c2ncnc(N[C@@H]3CC[C@@H](CO)OC3)c12 [Nemtabrutinib] ... 100% of control
C=CC(=O)Nc1cccc(Oc2nc(Nc3ccc(N4CCN(C)CC4)cc3)nc3ccoc23)c1 [Poseltinib] ... 100% of control

Input line: Give the measured JNK3 (MAPK10) POC of C=CC(=O)N1CCC[C@@H](c2ccc(C(N)=O)c3[nH]ccc23)C1 [Elsubrutinib] .
Output line: 94% of control

###

Would you kindly list ITK binding POC for each of these compounds?
Target: ITK (Homo sapiens)
Sequence (Q08881 whole entry): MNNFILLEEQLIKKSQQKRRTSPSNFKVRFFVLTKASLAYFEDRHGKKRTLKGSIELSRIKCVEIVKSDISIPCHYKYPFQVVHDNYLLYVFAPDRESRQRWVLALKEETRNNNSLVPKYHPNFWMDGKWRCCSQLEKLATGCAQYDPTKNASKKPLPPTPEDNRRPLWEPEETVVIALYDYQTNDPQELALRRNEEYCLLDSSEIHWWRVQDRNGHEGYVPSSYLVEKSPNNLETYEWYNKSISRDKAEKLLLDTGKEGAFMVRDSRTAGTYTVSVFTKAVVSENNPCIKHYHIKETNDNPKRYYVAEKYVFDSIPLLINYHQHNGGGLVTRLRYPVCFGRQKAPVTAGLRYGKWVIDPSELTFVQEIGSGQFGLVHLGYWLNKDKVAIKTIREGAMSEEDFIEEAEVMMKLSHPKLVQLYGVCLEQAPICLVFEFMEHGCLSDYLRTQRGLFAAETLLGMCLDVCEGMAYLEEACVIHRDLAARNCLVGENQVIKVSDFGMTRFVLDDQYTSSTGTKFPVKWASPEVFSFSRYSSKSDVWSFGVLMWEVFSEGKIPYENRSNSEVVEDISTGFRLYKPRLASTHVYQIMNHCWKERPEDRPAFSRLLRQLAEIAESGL
Assay: scanMAX binding POC, ITK
Settings: 1 μM

COc1ccc(F)cc1C(=O)NCc1ccc(-c2nn([C@@H](C)C(F)(F)F)c(N)c2C(N)=O)cc1 [Pirtobrutinib] ... 100% of control
CC#CC(=O)N[C@H]1CCCN(c2c(F)cc(C(N)=O)c3[nH]c(C)c(C)c23)C1 [Branebrutinib] ... 17% of control
C=CC(=O)N1CCC(c2ccc(C(N)=O)c(-c3ccc(Oc4ccccc4)cc3)n2)CC1 [Orelabrutinib] ... 100% of control
C=CC(=O)N(C)CCOc1c(N)ncnc1-c1cc(F)cc(NC(=O)c2ccc(C3CC3)cc2F)c1C [Remibrutinib] ... 97% of control
C=CC(=O)Nc1cccc(Oc2nc(Nc3ccc(N4CCN(C)CC4)cc3)nc3ccoc23)c1 [Poseltinib] ... 1% of control

Respectfully, I request ITK binding POC for each entry included below.
1. C=CC(=O)N1CCC[C@@H](n2c(=O)n(-c3ccc(Oc4ccccc4)cc3)c3c(N)nccc32)C1 [Tolebrutinib]
2. C=CC(=O)N1CCC([C@@H]2CCNc3c(C(N)=O)c(-c4ccc(Oc5ccccc5)cc4)nn32)CC1 [Zanubrutinib]

Output line:
67% of control
74% of control

###

Target: wild-type BTK (Homo sapiens, UniProt Q06187)
Construct: made in house; host or cells: transiently transfected HEK293 cells (unpurified extract)
Sequence (Q06187 whole entry): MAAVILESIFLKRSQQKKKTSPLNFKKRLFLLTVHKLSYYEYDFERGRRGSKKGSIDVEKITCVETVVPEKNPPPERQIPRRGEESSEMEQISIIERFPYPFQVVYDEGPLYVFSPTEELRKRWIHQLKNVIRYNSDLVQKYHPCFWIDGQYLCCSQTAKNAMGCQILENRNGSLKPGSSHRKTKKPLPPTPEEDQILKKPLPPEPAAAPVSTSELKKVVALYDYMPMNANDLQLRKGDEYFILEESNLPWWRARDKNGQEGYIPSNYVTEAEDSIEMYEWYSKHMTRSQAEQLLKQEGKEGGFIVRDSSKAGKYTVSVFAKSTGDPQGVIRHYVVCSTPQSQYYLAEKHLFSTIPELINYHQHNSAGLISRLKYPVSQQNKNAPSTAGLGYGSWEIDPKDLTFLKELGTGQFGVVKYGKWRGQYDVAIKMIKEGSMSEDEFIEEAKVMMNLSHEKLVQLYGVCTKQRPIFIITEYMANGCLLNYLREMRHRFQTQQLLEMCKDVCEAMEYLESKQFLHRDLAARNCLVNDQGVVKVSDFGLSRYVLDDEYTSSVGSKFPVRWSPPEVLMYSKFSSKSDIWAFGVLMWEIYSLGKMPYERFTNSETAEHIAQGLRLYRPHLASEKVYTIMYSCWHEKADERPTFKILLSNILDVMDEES
Assay: KdELECT competition binding, wild-type BTK
Conditions: wild-type BTK; average of N replicates, each in technical duplicate; read-out: average in-house Kd for BTK
Would you kindly list Kd for each of these compounds?
Numbers only, in nM.

Consider the worked cases shown below.
C=CC(=O)Nc1cccc(Oc2nc(Nc3ccc(N4CCN(C)CC4)cc3)nc3ccoc23)c1 ... 1.5
C=CC(=O)N1CCC[C@@H](c2ccc(C(N)=O)c3[nH]ccc23)C1 ... 2.9

Next compound, please.
Input line: Short answer please: Kd, wild-type BTK (Homo sapiens, UniProt Q06187), entry COc1ccc(F)cc1C(=O)NCc1ccc(-c2nn([C@@H](C)C(F)(F)F)c(N)c2C(N)=O)cc1
Output line: 0.81

###

Would you kindly list MKK7 binding POC for each of these compounds?
Target: MKK7 (Homo sapiens)
Sequence (O14733 1-419): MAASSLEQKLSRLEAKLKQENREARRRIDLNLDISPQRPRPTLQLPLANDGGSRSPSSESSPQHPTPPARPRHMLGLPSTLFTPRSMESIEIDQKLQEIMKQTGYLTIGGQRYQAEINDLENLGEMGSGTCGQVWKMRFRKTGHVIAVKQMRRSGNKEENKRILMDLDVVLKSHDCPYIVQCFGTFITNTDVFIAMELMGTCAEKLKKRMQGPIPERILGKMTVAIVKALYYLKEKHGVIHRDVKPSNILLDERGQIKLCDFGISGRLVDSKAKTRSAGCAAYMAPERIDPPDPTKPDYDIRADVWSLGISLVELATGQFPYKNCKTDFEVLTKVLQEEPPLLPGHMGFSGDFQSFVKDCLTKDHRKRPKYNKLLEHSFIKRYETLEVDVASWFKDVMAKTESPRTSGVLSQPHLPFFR
Assay: scanMAX binding POC, MKK7
Conditions: 1 μM

Consider the worked cases shown below.
C=CC(=O)Nc1cccc(Oc2nc(Nc3ccc(N4CCN(C)CC4)cc3)nc3ccoc23)c1 [Poseltinib] ... 100% of control
COc1ccc(F)cc1C(=O)NCc1ccc(-c2nn([C@@H](C)C(F)(F)F)c(N)c2C(N)=O)cc1 [Pirtobrutinib] ... 91% of control

Respectfully, I request MKK7 binding POC for each entry included below.
1. C=CC(=O)N1CCC[C@@H](c2ccc(C(N)=O)c3[nH]ccc23)C1 [Elsubrutinib]
2. CC#CC(=O)N[C@H]1CCCN(c2c(F)cc(C(N)=O)c3[nH]c(C)c(C)c23)C1 [Branebrutinib]
3. O=C(c1ccc(Oc2ccccc2)cc1Cl)c1c[nH]c2ncnc(N[C@@H]3CC[C@@H](CO)OC3)c12 [Nemtabrutinib]
4. CC#CC(=O)N1CC[C@@H](n2c(=O)n(-c3ccc(Oc4ccccc4)cc3)c3c(N)ncnc32)C1 [Tirabrutinib]
5. C=CC(=O)N1CCC([C@@H]2CCNc3c(C(N)=O)c(-c4ccc(Oc5ccccc5)cc4)nn32)CC1 [Zanubrutinib]
6. C=CC(=O)Nc1cccc(Nc2nc(Nc3ccc(OCCOC)cc3)ncc2F)c1 [Spebrutinib]
7. C=CC(=O)N1CCC(CNc2ncnc(N)c2-c2ccc(Oc3ccccc3)cc2)CC1 [Evobrutinib]

Output line:
1: 24% of control; 2: 100% of control; 3: 39% of control; 4: 87% of control; 5: 55% of control; 6: 79% of control; 7: 100% of control

Respectfully, I request MKK7 binding POC for each entry included below.
1. C=CC(=O)N1CCC(c2ccc(C(N)=O)c(-c3ccc(Oc4ccccc4)cc3)n2)CC1 [Orelabrutinib]
2. C[C@H]1CN(C2COC2)CCN1c1ccc(Nc2cc(-c3ccnc(N4CCn5c(cc6c5CC(C)(C)C6)C4=O)c3CO)cn(C)c2=O)nc1 [Fenebrutinib]
3. C=CC(=O)N(C)CCOc1c(N)ncnc1-c1cc(F)cc(NC(=O)c2ccc(C3CC3)cc2F)c1C [Remibrutinib]
4. CC#CC(=O)N1CCC[C@H]1c1nc(-c2ccc(C(=O)Nc3ccccn3)cc2)c2c(N)nccn12 [Acalabrutinib]
5. C=CC(=O)N1CCC[C@@H](n2nc(-c3ccc(Oc4ccccc4)cc3)c3c(N)ncnc32)C1 [Ibrutinib]
6. C=CC(=O)N1CCC[C@@H](n2c(=O)n(-c3ccc(Oc4ccccc4)cc3)c3c(N)nccc32)C1 [Tolebrutinib]

Output line:
1: 100% of control; 2: 89% of control; 3: 100% of control; 4: 75% of control; 5: 0.15% of control; 6: 19% of control
